Assay Protocol: Absorption spectra of rhodol fluorophores in phosphate buffer
Type: physicochemical
Condition Description: 50 mM aqueous phosphate buffer at pH about 8.0

[
  {
    "Compound": "CCCNc1ccc2c(c1)Oc1cc(O)ccc1C21OC(=O)c2ccccc21 (stereo not drawn) [A=H, R1=H, R2=n-Pr]",
    "εmax": "61,000 cm^−1M^−1"
  },
  {
    "Compound": "O=C1OC2(c3ccc(O)cc3Oc3cc(Nc4ccccc4)ccc32)c2ccccc21 (stereo not drawn) [A=H, R1=H, R2=Ph]",
    "εmax": "55,000 cm^−1M^−1"
  },
  {
    "Compound": "O=C1OC2(c3ccc(O)cc3Oc3cc(N4CCCCC4)ccc32)c2ccccc21 (stereo not drawn) [A=H, R1R2=CH2CH2CH2CH2CH2]",
    "εmax": "62,500 cm^−1M^−1"
  },
  {
    "Compound": "Nc1ccc2c(c1)Oc1cc(O)ccc1C21OC(=O)c2ccccc21 (stereo not drawn) [A=H, R1=H, R2=H]",
    "εmax": "~70,000 cm^−1M^−1"
  },
  {
    "Compound": "O=C1OC2(c3ccc(O)cc3Oc3cc(NCc4ccccc4)ccc32)c2ccccc21 (stereo not drawn) [A=H, R1=H, R2=Bn]",
    "εmax": "71,000 cm^−1M^−1"
  },
  {
    "Compound": "CCCCNc1ccc2c(c1)Oc1cc(O)ccc1C21OC(=O)c2ccccc21 (stereo not drawn) [A=H, R1=H, R2=n-Bu]",
    "εmax": "60,000 cm^−1M^−1"
  },
  {
    "Compound": "CN(C)c1ccc2c(c1)Oc1cc(O)ccc1C21OC(=O)c2ccccc21 (stereo not drawn) [A=H, R1=Me, R2=Me]",
    "εmax": "64,000 cm^−1M^−1"
  },
  {
    "Compound": "CCCCN(CCCC)c1ccc2c(c1)Oc1cc(O)ccc1C21OC(=O)c2ccccc21 (stereo not drawn) [A=H, R1=n-Bu, R2=n-Bu]",
    "εmax": "63,000 cm^−1M^−1"
  },
  {
    "Compound": "CCN(CC)c1ccc2c(c1)Oc1cc(O)ccc1C21OC(=O)c2ccccc21 (stereo not drawn) [A=H, R1=Et, R2=Et]",
    "εmax": "47,000 cm^−1M^−1"
  }
]

###

Assay Protocol: Fluorescence spectra and quantum yield of rhodol fluorophores, rhodamine 6G as reference
Format: physicochemical
Condition Description: 50 mM aqueous phosphate buffer at pH about 8.0; relative to rhodamine 6G (QY = 0.76 in water); N.D. = no fluorescence detected
QY (quantum yield) strictly under 0.2 means class 1; at 0.2 or over means class 0.

[
  {
    "Compound": "Nc1ccc2c(c1)Oc1cc(O)ccc1C21OC(=O)c2ccccc21 (centres unmarked)",
    "Qualitative Label": "class 0"
  },
  {
    "Compound": "CCCNc1ccc2c(c1)Oc1cc(OCOC)ccc1C21OC(=O)c2ccccc21 (centres unmarked)",
    "Qualitative Label": "class 0"
  },
  {
    "Compound": "C=CC(=O)Nc1ccc2c(c1)Oc1cc(O)ccc1C21OC(=O)c2ccccc21 (centres unmarked)",
    "Qualitative Label": "class 1"
  },
  {
    "Compound": "O=C(Nc1ccc2c(c1)Oc1cc(O)ccc1C21OC(=O)c2ccccc21)c1ccccc1 (centres unmarked)",
    "Qualitative Label": "class 1"
  },
  {
    "Compound": "CCCCNc1ccc2c(c1)Oc1cc(O)ccc1C21OC(=O)c2ccccc21 (centres unmarked)",
    "Qualitative Label": "class 0"
  },
  {
    "Compound": "CCCNc1ccc2c(c1)Oc1cc(O)ccc1C21OC(=O)c2ccccc21 (centres unmarked)",
    "Qualitative Label": "class 0"
  },
  {
    "Compound": "CCN(CC)c1ccc2c(c1)Oc1cc(O)ccc1C21OC(=O)c2ccccc21 (centres unmarked)",
    "Qualitative Label": "class 1"
  },
  {
    "Compound": "O=C1OC2(c3ccc(O)cc3Oc3cc(N4CCCCC4)ccc32)c2ccccc21 (centres unmarked)",
    "Qualitative Label": "class 1"
  }
]
